molecular target: SRC (Homo sapiens, UniProt P12931); construct: purchased Caliper Life Sciences; experiment: Desktop Profiler kinase panel, SRC; assay type: biochemical; settings: 10 micromolar concentration of the compound; read-out: Percent Inhibition SRC
Sequence (P12931 whole entry, species assumed): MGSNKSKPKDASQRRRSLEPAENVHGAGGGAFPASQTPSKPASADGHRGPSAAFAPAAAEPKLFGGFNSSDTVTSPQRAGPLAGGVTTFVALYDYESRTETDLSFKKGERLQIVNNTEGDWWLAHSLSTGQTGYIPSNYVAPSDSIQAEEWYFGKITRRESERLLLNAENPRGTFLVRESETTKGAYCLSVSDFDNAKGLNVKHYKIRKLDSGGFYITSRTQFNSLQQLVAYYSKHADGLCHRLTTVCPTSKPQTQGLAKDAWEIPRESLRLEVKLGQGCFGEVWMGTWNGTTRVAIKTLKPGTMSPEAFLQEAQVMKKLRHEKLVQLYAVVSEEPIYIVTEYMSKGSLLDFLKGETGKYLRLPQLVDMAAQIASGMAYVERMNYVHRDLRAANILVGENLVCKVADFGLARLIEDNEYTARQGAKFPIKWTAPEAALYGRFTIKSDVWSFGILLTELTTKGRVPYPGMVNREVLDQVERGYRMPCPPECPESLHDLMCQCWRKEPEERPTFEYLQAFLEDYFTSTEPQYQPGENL
Here the recorded inhibition at 10 µM is given for each entry.

Worked cases, answers included:
> print(dat)
                                   compound       assay.endpoint     result
1  O=c1[nH]c2nccc(NCc3ccccc3)c2c2ccccc12 [Example 96]  inhibition at 10 µM  50 to 70%
2  COc1ccccc1Nc1ccnc2[nH]c(=O)c3ccccc3c12 [Example 114]  inhibition at 10 µM      > 90%
3  Clc1nc2nccc(Oc3ccccc3)c2c2ccccc12 [Example 140]  inhibition at 10 µM  50 to 70%

Q) Which value of inhibition at 10 µM has been reported for O=C(Nc1ccc(Nc2ccnc3[nH]c(=O)c4ccccc4c23)cc1)c1ccccc1 [Example 120] in the records?
A) 50 to 70%

Q) # inhibition at 10 µM lookup, item COc1ccccc1Nc1ccc2c(=O)[nH]c3ncccc3c2c1 [Example 30]
A) 50 to 70%

Q) Consider the compound COc1ccc(Nc2ccnc3[nH]c(=O)c4ccccc4c23)cc1 [Example 113] and give its measured inhibition at 10 µM.
A) 70 to 90%

Q) Endpoint output: inhibition at 10 µM of CC(=O)Nc1ccc(Oc2ccc3c(=O)[nH]c4ncccc4c3c2)cc1 [Example 81] . Value?
A) > 90%

Q) I'd like to know its inhibition at 10 µM. The compound in question is O=c1[nH]c2nccc(Nc3ccc(Oc4ccccc4)cc3)c2c2ccccc12 [Example 121]
A) 70 to 90%

Q) # query: inhibition at 10 µM of entry NC(=O)c1ccc(Oc2ccc3c(=O)[nH]c4ncccc4c3c2)cc1 [Example 82]
A) 50 to 70%

Q) I have this compound here, O=c1[nH]c2ncc(NCc3ccccc3)cc2c2ccccc12 [Example 13] , and I need its recorded inhibition at 10 µM.
A) 70 to 90%

Q) Name the reported inhibition at 10 µM value associated with the compound Clc1nc2nccc(NCc3ccccc3)c2c2ccccc12 [Example 103]
A) 70 to 90%

Q) Data request, read-out inhibition at 10 µM, for O=c1[nH]c2nccc(Nc3ccccc3)c2c2ccccc12 [Example 95]
A) > 90%

Q) So what's the measured inhibition at 10 µM for this one? O=c1[nH]c2ncccc2c2cc(Nc3cccc(F)c3)ccc12 [Example 31]
A) 70 to 90%

Q) I have this compound here, Clc1nc2nccc(Nc3ccccc3)c2c2ccccc12 [Example 139] , and I need its recorded inhibition at 10 µM.
A) > 90%

* * *

# Lookup of reported IC50 keyed by entry
molecular target: GST-Aurora A (Homo sapiens); construct: N-terminal GST fusion with full length Aurora A (1-403 amino acids); assay: Aurora A IC50, Caliper LC3000 mobility shift assay; conditions: LC3000 method; 15 uM ATP (the KM value); read-out: Aurora Kinase A Activity (IC50)
Sequence (O14965 whole entry, the tested form may be a part): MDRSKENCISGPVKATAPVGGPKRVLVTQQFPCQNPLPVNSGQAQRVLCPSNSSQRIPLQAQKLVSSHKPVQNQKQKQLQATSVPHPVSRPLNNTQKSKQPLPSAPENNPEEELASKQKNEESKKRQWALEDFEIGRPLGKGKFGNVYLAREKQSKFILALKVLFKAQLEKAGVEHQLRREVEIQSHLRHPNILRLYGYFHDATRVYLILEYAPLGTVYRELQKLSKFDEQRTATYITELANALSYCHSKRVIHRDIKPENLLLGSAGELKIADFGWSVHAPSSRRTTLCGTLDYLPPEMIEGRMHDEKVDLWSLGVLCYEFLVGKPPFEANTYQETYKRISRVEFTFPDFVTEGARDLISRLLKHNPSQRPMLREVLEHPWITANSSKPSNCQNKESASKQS

Worked set:
> print(dat)
                                   compound                 assay.target  assay.endpoint        result
1  O=C(Cc1cc(Nc2ccnc3[nH]c(=O)c4ccccc4c23)n[nH]1)Nc1ccc(F)c(F)c1  GST-Aurora A (Homo sapiens)            IC50      > 100 nM
2  O=C(Nc1ccc(Nc2ccnc3[nH]c(=O)c4ccccc4c23)cc1)c1cccc(Cl)c1  GST-Aurora A (Homo sapiens)            IC50       < 11 nM
3  Cn1ccc(C(=O)Nc2ccc(Nc3ccnc4[nH]c(=O)c5ccccc5c34)cc2)n1  GST-Aurora A (Homo sapiens)            IC50  11 to 100 nM
4  O=C(NCC(O)CO)c1ccc2c(c1)c(=O)[nH]c1nccc(Nc3ccc(NC(=O)c4ccccc4)cc3)c12 (stereo not shown)  GST-Aurora A (Homo sapiens)            IC50       < 11 nM
5  O=C(c1cc(F)cc(F)c1)N1CCC(CNc2ccnc3[nH]c(=O)c4ccccc4c23)C1 (stereo not shown)  GST-Aurora A (Homo sapiens)            IC50      > 100 nM

Q) Find the measured IC50: item `CN(C)CCNC(=O)c1cccc2c1c(=O)[nH]c1nccc(Nc3ccc(NC(=O)c4ccc(F)cc4C(F)(F)F)cc3)c12` , target or system GST-Aurora A (Homo sapiens).
A) < 11 nM

Q) Lab note: need IC50 with GST-Aurora A (Homo sapiens) for entry `CN(C)CCNC(=O)c1ccc2c(c1)c(=O)[nH]c1nccc(Nc3ccc(NC(=O)c4ccccc4)cc3)c12` , please look it up.
A) 11 to 100 nM

Q) Please provide the recorded IC50 for CN1CCCC1CCNc1ccc2c(=O)[nH]c3ncccc3c2c1 (stereo not shown) , tested on GST-Aurora A (Homo sapiens).
A) > 100 nM

Q) Lab note: need IC50 with GST-Aurora A (Homo sapiens) for entry `O=C(Nc1ccc(Nc2ccnc3[nH]c(=O)c4ccc(Cl)cc4c23)cc1)c1ccccc1` , please look it up.
A) < 11 nM

Q) Give recorded IC50 with GST-Aurora A (Homo sapiens) for the following compound: `COc1cc2c(=O)[nH]c3nccc(Nc4ccccc4F)c3c2cc1OC`
A) 11 to 100 nM

Q) Give the reported IC50 for `COc1ccccc1C(=O)Nc1ccc(Nc2ccnc3[nH]c(=O)c4ccccc4c23)cc1` (system: GST-Aurora A (Homo sapiens)).
A) < 11 nM

Q) Can you look up IC50 on GST-Aurora A (Homo sapiens) for `O=C(Nc1ccc(Nc2ccnc3[nH]c(=O)c4ccccc4c23)cc1)c1cc(F)cc(F)c1` ?
A) < 11 nM

Q) Item `O=C(Nc1ccc(Nc2ccnc3[nH]c(=O)c4ccccc4c23)cn1)c1ccccc1` with GST-Aurora A (Homo sapiens) - IC50?
A) 11 to 100 nM

Q) Observed IC50 on GST-Aurora A (Homo sapiens) for `O=C(NCc1ccc(Nc2ccnc3[nH]c(=O)c4ccccc4c23)cc1)c1ccccc1` , please.
A) 11 to 100 nM

Q) Look up IC50 with GST-Aurora A (Homo sapiens) for this compound: `O=C(Nc1ccc(Nc2ccnc3[nH]c(=O)c4ccc(F)cc4c23)cc1)c1ccc(F)c(F)c1`
A) < 11 nM

Q) Record `O=C(Nc1ccc(Nc2ccnc3[nH]c(=O)c4ccccc4c23)cc1)c1ccccc1F` : what is its IC50 with GST-Aurora A (Homo sapiens)?
A) < 11 nM
